Target: EGFR L858R/T790M/C797S (BaF3-LTC cells) (Homo sapiens (Human), UniProt P00533, C797S/L858R/T790M)
Sequence (P00533 25-1210 T790M/C797S/L858R): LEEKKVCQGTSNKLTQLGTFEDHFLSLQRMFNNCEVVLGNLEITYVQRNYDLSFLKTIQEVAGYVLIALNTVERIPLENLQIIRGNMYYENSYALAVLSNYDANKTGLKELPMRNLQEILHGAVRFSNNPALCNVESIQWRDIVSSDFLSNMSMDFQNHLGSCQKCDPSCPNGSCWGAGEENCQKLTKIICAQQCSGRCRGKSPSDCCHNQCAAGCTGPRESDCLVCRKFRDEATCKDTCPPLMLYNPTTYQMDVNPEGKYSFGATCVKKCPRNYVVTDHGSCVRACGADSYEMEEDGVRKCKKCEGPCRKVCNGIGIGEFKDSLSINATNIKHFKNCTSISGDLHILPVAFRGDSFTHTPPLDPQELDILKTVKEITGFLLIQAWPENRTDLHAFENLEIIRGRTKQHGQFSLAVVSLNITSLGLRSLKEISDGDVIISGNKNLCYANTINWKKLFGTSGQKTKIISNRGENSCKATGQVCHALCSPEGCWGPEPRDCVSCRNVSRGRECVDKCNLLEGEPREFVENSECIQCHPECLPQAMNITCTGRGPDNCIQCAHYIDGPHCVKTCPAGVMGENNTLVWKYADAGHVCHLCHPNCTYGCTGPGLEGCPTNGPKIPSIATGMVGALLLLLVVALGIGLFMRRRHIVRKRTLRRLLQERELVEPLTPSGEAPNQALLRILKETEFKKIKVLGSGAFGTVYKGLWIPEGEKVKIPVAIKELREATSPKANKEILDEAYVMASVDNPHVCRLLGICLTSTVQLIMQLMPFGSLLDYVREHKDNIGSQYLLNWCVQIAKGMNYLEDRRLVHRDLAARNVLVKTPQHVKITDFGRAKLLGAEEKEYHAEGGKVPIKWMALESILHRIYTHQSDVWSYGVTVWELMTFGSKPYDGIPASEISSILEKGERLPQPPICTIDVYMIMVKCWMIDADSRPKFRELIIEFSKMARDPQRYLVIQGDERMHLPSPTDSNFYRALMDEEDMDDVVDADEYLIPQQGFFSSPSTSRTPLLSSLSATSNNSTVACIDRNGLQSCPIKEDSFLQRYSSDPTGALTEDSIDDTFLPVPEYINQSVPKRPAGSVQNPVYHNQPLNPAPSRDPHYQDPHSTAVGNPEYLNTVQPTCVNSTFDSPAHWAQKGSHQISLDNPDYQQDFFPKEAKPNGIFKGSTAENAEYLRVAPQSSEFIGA
Test: EGFR degradation HTRF assay in BaF3-LTC cells
Format: cell-based
Details: 16 h treatment, Table 2, read-out: BaF3-LTC DC50
Procedure: BaF3-LTC(L858R/T790M/C797S) and BaF3-DTC(Del19/T790M/C797S) cells are treated with compounds diluted in 0.2% DMSO cell culture medium and incubate for 16 h, 37° C., 5% CO2, H1975- #28 cells are treated with compounds diluted in 0.2% DMSO cell culture medium on day 2, incubate for 16 h, 37° C., 5% CO2. the final concentration of compounds in all assay is start with 10 uM, 5-fold dilution, total 8 doses were included. […]
experimentalReadout: DC50 (nM)

Before answering, review these 3 worked examples.
Lab note: measured DC50 of "CCc1ccc2c(P(C)(C)=O)c(Nc3nc(Nc4cc(CC)c(N5CCC(N6CCN(CCc7cc(F)c([C@@H]8CCC(=O)NC8=O)c(F)c7)CC6)CC5)cc4OC)ncc3Br)ccc2n1" was 90

Lab note: measured DC50 of "CCc1ccc2c(P(C)(C)=O)c(Nc3nc(Nc4cc(CC)c(N5CCC(N6CCN(CCc7cc(F)c([C@H]8CCC(=O)NC8=O)c(F)c7)CC6)CC5)cc4OC)ncc3Br)ccc2n1" was 6.77

Lab note: measured DC50 of "CCc1cc(Nc2ncc(Br)c(Nc3ccc4nc(C)ccc4c3P(C)(C)=O)n2)c(OC)cc1N1CCC(N2CCN(C(=O)[C@@H]3CCN(c4ccc([C@H]5CCC(=O)NC5=O)cc4)C3)CC2)CC1" was 7.8

[1] CCc1cc(Nc2ncc(Br)c(Nc3ccc4nc(C)ccc4c3P(C)(C)=O)n2)c(OC)cc1N1CCC(N2CCN(C(=O)[C@@H]3CCN(c4cc(F)c([C@H]5CCC(=O)NC5=O)c(F)c4)C3)CC2)CC1
[2] CCc1ccc2c(P(C)(C)=O)c(Nc3nc(Nc4cc(CC)c(N5CCC(N6CCN(C(=O)[C@@H]7CCN(c8cc(F)c([C@H]9CCC(=O)NC9=O)c(F)c8)C7)CC6)CC5)cc4OC)ncc3Br)ccc2n1
[3] CCc1cc(Nc2ncc(Br)c(Nc3ccc4nc(C)ccc4c3P(C)(C)=O)n2)c(OC)cc1N1CCC(N2CCN(C(=O)[C@@H]3CCN(c4ccc([C@@H]5CCC(=O)NC5=O)cc4)C3)CC2)CC1
[4] CCc1ccc2c(P(C)(C)=O)c(Nc3nc(Nc4cc(CC)c(N5CCC(N6CCN(C(=O)[C@@H]7CCN(c8cc(F)c([C@@H]9CCC(=O)NC9=O)c(F)c8)C7)CC6)CC5)cc4OC)ncc3Br)ccc2n1
Qu. Write the entries in order, lowest recorded DC50 first. Please respond with the labels ordered as the question requires.
Ans. 1, 2, 3, 4
(1: 5.23 nM, 2: 8.99 nM, 3: 85.4 nM, 4: 360 nM)

* * *

Test system: HEK-293 cells
Test: HEK-293 cytotoxicity detection (CellTiter-Glo)
Type: cell-based
Details: Homo sapiens, HEK293, 72 h incubation
Protocol: HEK-293 cells were treated with compounds diluted in 0.2% DMSO, dilution was done according to the following protocol: (1) making 500× stock solution in DMSO from 5 mM by 4-fold dilution, total 8 doses were included; (2) making 2× solution in cell culture medium by transferring 0.5ul 500× stock solution into 125ul medium; (3) adding 50ul of 2× solution to cells for incubation of 72 h. 25 μl of the CellTiter-Glo®Reagent [(Promega) - Cat No. G7572] was added to each well in the 96-well plate. […]
Measured IC50 by item

Before answering, review these 3 worked examples.
Record Cc1cccc(NC(=O)c2ccc(-c3nn4c(c3C(N)=O)Nc3ccc(N5CCN(CCc6cc(F)c([C@H]7CCC(=O)NC7=O)c(F)c6)CC5)cc3CC4)c(F)c2C)n1 [Example B35] has HEK-293 cells IC50 equal to > 10 µM

Record Cc1c(C(=O)Nc2cn(C)cn2)ccc(-c2nn3c(c2C(N)=O)Nc2ccc(N4CCN(CCc5cc(F)c([C@H]6CCC(=O)NC6=O)c(F)c5)CC4)cc2CC3)c1F [Example B37] has HEK-293 cells IC50 equal to > 10 µM

Record Cc1cc(-c2cc(Nc3cccc(N4CCN(CC5CCN(c6ccc(N7CCC(=O)NC7=O)cc6)CC5)CC4)c3)ncn2)c(F)cc1[C@@H](C)NC(=O)c1nc(C(C)(C)C)no1 [Example C39] has HEK-293 cells IC50 equal to > 10 µM

More entries:
Record Cc1c(C(=O)Nc2cscn2)ccc(-c2nn3c(c2C(N)=O)Nc2ccc(N4CCN(CCc5cc(F)c([C@H]6CCC(=O)NC6=O)c(F)c5)CC4)cc2CC3)c1F [Example B38] has HEK-293 cells IC50 equal to 0.0268 µM

Record Cc1cc(-c2cc(Nc3ccc(N4CCN(CCc5cc(F)c([C@H]6CCC(=O)NC6=O)c(F)c5)CC4)cn3)ncn2)ccc1[C@@H](C)NC(=O)c1nc(C(C)(C)C)no1 [Example C41] has HEK-293 cells IC50 equal to > 10 µM
